- Test system: Candida haemulonii
- Procedure details: Planktonic growth, broth microdilution (CLSI M27-A3), MIC
- Type: cell-based
- Condition description: isolate LIP Ch12; planktonic, 48 h, 37°C
- Source text: Three clinical isolates of each species that form the C. haemulonii complex were used in this study: C. haemulonii (LIPCh4 from finger nail, LIPCh7 from toe nail, and LIPCh12 from blood), C. duobushaemulonii (LIPCh1 from finger nail, LIPCh6 from toe nail, and LIPCh8 from blood) and C. haemulonii var. vulnera (LIPCh5 from toe nail, LIPCh9 from urine, and LIPCh11 from blood) (Ramos et al., [2015]). […]
Metric: MIC (µg/mL)
Express your answer in µg/mL, writing the number without its unit.

See these solved cases before continuing.
| Molecule | MIC, µg/mL |
| --- | --- |
| O=C1C(=O)c2cccnc2-c2ncccc21.O=C1C(=O)c2cccnc2-c2ncccc21.[Ag+].[O-][Cl+3]([O-])([O-])[O-] [compound 15, [Ag(phendione)2]ClO4] | 1 |
| O.O.O.O.O=C([O-])c1cccc(C(=O)[O-])c1.O=C([O-])c1cccc(C(=O)[O-])c1.[Mn+2].[Mn+2].c1cnc2c(c1)ccc1cccnc12.c1cnc2c(c1)ccc1cccnc12.c1cnc2c(c1)ccc1cccnc12 [compound 10, [Mn2(isoph)2(phen)3].4H2O] | 4 |

// MIC lookup, molecule = O.O.O.O=C([O-])CCCCCCCCCC(=O)[O-].[Ag+].[Ag+].c1cnc2c(c1)ccc1cccnc12.c1cnc2c(c1)ccc1cccnc12.c1cnc2c(c1)ccc1cccnc12 [compound 18, [Ag2(phen)3(udda)].3H2O] , result: 0.125

MIC for CCO.O=C([O-])COCCOCCOCC(=O)[O-].[Ag+].[Ag+].c1cnc2c(c1)ccc1cccnc12.c1cnc2c(c1)ccc1cccnc12.c1cnc2c(c1)ccc1cccnc12.c1cnc2c(c1)ccc1cccnc12 [compound 16, [Ag2(3,6,9-tdda)(phen)4].EtOH] is 1

Entry under test: O.O.O.O.O.O=C([O-])c1ccc(C(=O)[O-])cc1.[Mn+2].c1cnc2c(c1)ccc1cccnc12.c1cnc2c(c1)ccc1cccnc12 [compound 12, [Mn(tereph)(phen)2].5H2O] . Its MIC was 4

Kindly note the recorded MIC for CCO.O=C([O-])CCCCCCC(=O)[O-].[Cu+2].[Cu+2].[O-][Cl+3]([O-])([O-])[O-].[O-][Cl+3]([O-])([O-])[O-].c1cnc2c(c1)ccc1cccnc12.c1cnc2c(c1)ccc1cccnc12.c1cnc2c(c1)ccc1cccnc12.c1cnc2c(c1)ccc1cccnc12 [compound 5, [Cu2(oda)(phen)4](ClO4)2.2.76H2O.EtOH] , which is 16

// recorded MIC for O.O.O.O.O.O.O.O.O.O.O.O.O.O.O.O.O=C([O-])c1cccc(C(=O)[O-])c1.O=C([O-])c1cccc(C(=O)[O-])c1.[Mn+2].[Mn+2].c1cnc2c(c1)ccc1cccnc12.c1cnc2c(c1)ccc1cccnc12.c1cnc2c(c1)ccc1cccnc12.c1cnc2c(c1)ccc1cccnc12.c1cnc2c(c1)ccc1cccnc12 [compound 11, {[Mn(phen)2(H2O)2]}2(isoph)2(phen).12H2O] : 2
